- System: PC-9
- assay-explanation: Antiproliferative activity against human PC-9 cells expressing EGFR E746/A750 deletion mutant assessed as reduction in cell viability after 72 hrs by CCK-8 assay
- Assay type: functional
Reported log10(GI50) by item:
Please be aware that the numbers have been log10-transformed from GI50 in nM.

In the examples that follow, each entry is paired with its recorded log10(GI50).
[
  {
    "chemical-string": "C=CC(=O)N1C[C@@H]2C[C@H]1CN2C(=O)Oc1cc2c(Nc3ccc(Cl)c(Cl)c3F)ncnc2cc1OC",
    "experimental-system": "PC-9",
    "log10(GI50)": 0.29
  },
  {
    "chemical-string": "C=CC(=O)Oc1cc2c(Nc3ccc(Cl)c(Cl)c3F)ncnc2cc1OC",
    "experimental-system": "PC-9",
    "log10(GI50)": 1.97
  },
  {
    "chemical-string": "C=C(C(=O)N1CCN(C(=O)Oc2cc3c(Nc4ccc(Cl)c(Cl)c4F)ncnc3cc2OC)[C@H](C)C1)C(F)(F)F",
    "experimental-system": "PC-9",
    "log10(GI50)": 1.96
  },
  {
    "chemical-string": "CN(C)C/C=C/C(=O)Nc1cc2c(Nc3ccc(F)c(Cl)c3)ncnc2cc1O[C@H]1CCOC1",
    "experimental-system": "PC-9",
    "log10(GI50)": -0.43
  },
  {
    "chemical-string": "C=CC(=O)N1CCC(Oc2cc3c(Nc4ccc(Cl)c(Cl)c4F)ncnc3cc2OC)CC1",
    "experimental-system": "PC-9",
    "log10(GI50)": -0.05
  },
  {
    "chemical-string": "C=CC(=O)N1CCN(C(=O)Oc2cc3c(Nc4cccc(Cl)c4F)ncnc3cc2OC)[C@H](C)C1",
    "experimental-system": "PC-9",
    "log10(GI50)": 0.78
  }
]

**Query** Which log10(GI50) value is on record for `C#CC(=O)N1CCN(C(=O)Oc2cc3c(Nc4ccc(Cl)c(Cl)c4F)ncnc3cc2OC)[C@H](C)C1` ?
**Result** 2.48
